TARGET ENTITY: total HDACs from HeLa nuclear extracts
TEST DETAILS: Total HDACs enzyme assay (HeLa nuclear extracts)
ASSAY CONDITIONS: pure resynthesized compounds, means of at least three experiments
METRIC NAME: IC50

Prompt: Assign IC50 to the following record: Cc1ccc(C(=O)NCC(=O)NCCC(=O)Nc2ccccc2N)cc1 [compound 1, reference compound]
Response: > 100 µM

Prompt: Assign IC50 to the following record: Nc1ccccc1NC(=O)c1ccc(-c2cn(CCc3ccsc3)nn2)cc1
Response: > 100 µM

Prompt: Assign IC50 to the following record: Nc1ccccc1NC(=O)c1ccc(-c2cn(CCc3cccc([N+](=O)[O-])c3)nn2)s1
Response: > 100 µM

---

METRIC NAME: IC50

Prompt: Name the value of IC50 reported for Cc1ccc(C(=O)NCC(=O)NCCC(=O)Nc2ccccc2N)cc1 [compound 1, reference compound] when tested on HDAC1 (Homo sapiens, UniProt Q13547).
Sequence (Q13547 whole entry): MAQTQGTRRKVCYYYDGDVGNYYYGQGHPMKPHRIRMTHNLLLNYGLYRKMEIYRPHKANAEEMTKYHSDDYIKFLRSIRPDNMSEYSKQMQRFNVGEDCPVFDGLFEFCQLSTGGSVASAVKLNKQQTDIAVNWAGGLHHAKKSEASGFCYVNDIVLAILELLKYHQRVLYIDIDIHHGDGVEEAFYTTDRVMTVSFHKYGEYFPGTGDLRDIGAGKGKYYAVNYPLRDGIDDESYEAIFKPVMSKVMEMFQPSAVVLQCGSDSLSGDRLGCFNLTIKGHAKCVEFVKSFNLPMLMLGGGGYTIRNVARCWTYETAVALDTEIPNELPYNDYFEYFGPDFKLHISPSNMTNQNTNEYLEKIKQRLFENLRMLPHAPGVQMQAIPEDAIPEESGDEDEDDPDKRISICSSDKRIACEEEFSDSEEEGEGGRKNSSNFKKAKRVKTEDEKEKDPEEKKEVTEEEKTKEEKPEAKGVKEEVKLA
Response: > 100 µM

Prompt: Name the value of IC50 reported for Nc1ccccc1NC(=O)c1ccc(-c2cn(CCc3cccc([N+](=O)[O-])c3)nn2)s1 when tested on HDAC1 (Homo sapiens, UniProt Q13547).
Response: > 100 µM

Prompt: Name the value of IC50 reported for Nc1ccccc1NC(=O)c1ccc(-c2cn(CCc3ccsc3)nn2)cc1 when tested on HDAC1 (Homo sapiens, UniProt Q13547).
Response: 19 µM

---

Provide the reported HDAC3 inhibition (%) of each item.
TARGET ENTITY: HDAC3/NCOR1 complex (Homo sapiens)
Sequence (O15379 whole entry): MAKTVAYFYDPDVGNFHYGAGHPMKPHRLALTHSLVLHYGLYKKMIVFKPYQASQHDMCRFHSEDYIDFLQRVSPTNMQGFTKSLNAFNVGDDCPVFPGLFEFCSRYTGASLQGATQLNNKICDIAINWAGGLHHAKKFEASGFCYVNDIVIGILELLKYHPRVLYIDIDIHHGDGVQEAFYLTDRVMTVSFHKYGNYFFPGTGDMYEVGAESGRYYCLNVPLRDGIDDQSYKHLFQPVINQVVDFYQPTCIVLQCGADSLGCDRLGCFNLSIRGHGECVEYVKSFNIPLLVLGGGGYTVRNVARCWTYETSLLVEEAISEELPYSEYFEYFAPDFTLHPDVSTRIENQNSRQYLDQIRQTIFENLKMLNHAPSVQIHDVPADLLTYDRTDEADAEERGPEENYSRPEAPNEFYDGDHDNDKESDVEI
Sequence (O75376 395-489 partner limits assumed): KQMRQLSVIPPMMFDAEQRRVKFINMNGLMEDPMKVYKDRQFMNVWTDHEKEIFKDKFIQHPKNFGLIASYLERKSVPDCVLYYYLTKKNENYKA
TEST DETAILS: HDAC3 enzyme assay (fluorescent activity kit, HDAC3/NCOR1 complex)
Type: biochemical
ASSAY CONDITIONS: 1 µM; means of two experiments
Your answer should be a plain number; it is taken to be in %.

Prompt: Assign HDAC3 inhibition (%) to the following record: Nc1ccccc1NC(=O)CCc1cn(Cc2cccc(-c3ccccc3)c2)nn1
Response: 55

Prompt: Assign HDAC3 inhibition (%) to the following record: Nc1ccccc1NC(=O)c1ccc(-c2cn(CCC3CCCCC3)nn2)cc1
Response: 55

Prompt: Assign HDAC3 inhibition (%) to the following record: Nc1ccccc1NC(=O)c1ccc(-c2cn(Cc3cccc4ccccc34)nn2)cc1
Response: 75

Prompt: Assign HDAC3 inhibition (%) to the following record: COc1ccccc1CCn1cc(-c2ccc(C(=O)Nc3ccccc3N)cc2)nn1
Response: 73

Prompt: Assign HDAC3 inhibition (%) to the following record: Nc1ccccc1NC(=O)c1ccc(-c2cn(CCc3cccc(F)c3)nn2)cc1
Response: 75

Prompt: Assign HDAC3 inhibition (%) to the following record: COc1cccc(CCn2cc(-c3ccc(C(=O)Nc4ccccc4N)cc3)nn2)c1
Response: 80

Prompt: Assign HDAC3 inhibition (%) to the following record: Nc1ccccc1NC(=O)c1cccc(-c2cn(CC(=O)c3ccccc3)nn2)c1
Response: 59

Prompt: Assign HDAC3 inhibition (%) to the following record: Nc1ccccc1NC(=O)c1ccc(-c2cn(CCc3ccc(F)cc3)nn2)s1
Response: 77

Prompt: Assign HDAC3 inhibition (%) to the following record: Cc1ccccc1CCn1cc(-c2ccc(C(=O)Nc3ccccc3N)cc2)nn1
Response: 74

---

TARGET ENTITY: HDAC3/NCOR1 complex (Homo sapiens)
TEST DETAILS: HDAC3 enzyme assay (fluorescent activity kit, HDAC3/NCOR1 complex);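 also: in vitro enzyme activity of HDAC3 complexed with NCOR1, fluorescence read at 360 nm excitation and 460 nm emission, inhibition relative to uninhibited control wells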
Type: biochemical
ASSAY CONDITIONS: 3 µM; means of two experiments
METRIC NAME: HDAC3 inhibition (%)
Your answer should be a plain number; it is taken to be in %.

Prompt: Assign HDAC3 inhibition (%) to the following record: Nc1ccccc1NC(=O)CCc1cn(Cc2cccc(-c3ccccc3)c2)nn1 [Compound T52]
Response: 81

Prompt: Assign HDAC3 inhibition (%) to the following record: Nc1ccccc1NC(=O)c1ccc(-c2cn(CCc3cccc(F)c3)nn2)cc1 [Compound T261]
Response: 89

Prompt: Assign HDAC3 inhibition (%) to the following record: Nc1ccccc1NC(=O)c1ccc(-c2cn(CCC3CCCCC3)nn2)cc1 [Compound T254]
Response: 80

Prompt: Assign HDAC3 inhibition (%) to the following record: COc1cccc(CCn2cc(-c3ccc(C(=O)Nc4ccccc4N)cc3)nn2)c1 [Compound T267]
Response: 92

Prompt: Assign HDAC3 inhibition (%) to the following record: Nc1ccccc1NC(=O)c1cccc(-c2cn(CC(=O)c3ccccc3)nn2)c1 [Compound T199]
Response: 83

Prompt: Assign HDAC3 inhibition (%) to the following record: Nc1ccccc1NC(=O)c1ccc(-c2cn(CCc3ccc(F)cc3)nn2)s1 [Compound T318]
Response: 91

Prompt: Assign HDAC3 inhibition (%) to the following record: Cc1ccccc1CCn1cc(-c2ccc(C(=O)Nc3ccccc3N)cc2)nn1 [Compound T263]
Response: 91

Prompt: Assign HDAC3 inhibition (%) to the following record: Nc1ccccc1NC(=O)c1ccc(-c2cn(Cc3cccc4ccccc34)nn2)cc1 [Compound T251]
Response: 92

Prompt: Assign HDAC3 inhibition (%) to the following record: COc1ccccc1CCn1cc(-c2ccc(C(=O)Nc3ccccc3N)cc2)nn1 [Compound T266]
Response: 91
